Target: N-terminally FLAG-tagged PARP2 (amino acids 1-583) (Homo sapiens)
Construct: N-terminally FLAG-tagged PARP2 (amino acids 1-583)
Assay: PARP2 probe displacement HTRF assay
Format: binding
Conditions: binned Kd, probe displacement HTRF
Experimental: Data analysis was performed identical as for PARP1.
Listed below: Kd values for each entry.

>  <COMPOUND>
CNC(=O)c1ccc(N2CCC(N3CC(c4cc5cccc(F)c5c(=O)[nH]4)CC3=O)CC2)cn1 (racemic) [Compound 362rac]

>  <RECORDED_MEASUREMENT>
1000 to 10000 nM

$$$$
>  <COMPOUND>
CNC(=O)c1ccc(N2CCC(N3CCC(c4cnc(CC(F)(F)F)c(=O)[nH]4)C3)CC2)cn1 (single isomer, unassigned) [Compound 287b]

>  <RECORDED_MEASUREMENT>
> 10000 nM

$$$$
>  <COMPOUND>
N#Cc1ccc(N2CCC(N3CCC(c4cc5cccc(F)c5c(=O)[nH]4)C3)CC2)c(F)c1 (single isomer, unassigned) [Compound 356b]

>  <RECORDED_MEASUREMENT>
1000 to 10000 nM

$$$$
>  <COMPOUND>
N#Cc1nc(C(=O)NC2CC2)ccc1N1CCC(N2CCC(c3cc4ccc(F)cc4c(=O)[nH]3)C2)CC1 (single isomer, unassigned) [Compound 397b]

>  <RECORDED_MEASUREMENT>
10 to 100 nM

$$$$
>  <COMPOUND>
CNC(=O)c1ncc(N2CCC(N3CCC(c4cc5ccc(F)cc5c(=O)[nH]4)C3)CC2)c(C(F)(F)F)n1 (single isomer, unassigned) [Compound 266a]

>  <RECORDED_MEASUREMENT>
100 to 1000 nM

$$$$

Alright, here's another compound for you.
What value of measured Kd is listed for CNC(=O)c1ccc(N2CCC(N3CCC(c4cc5ncc(F)cc5c(=O)[nH]4)C3)CC2)c(F)n1 (racemic) [Compound 324rac] ?
100 to 1000 nM

###

Target: full length N-terminally FLAG-tagged PARP1 (Homo sapiens, UniProt P09874)
Sequence (P09874 whole entry): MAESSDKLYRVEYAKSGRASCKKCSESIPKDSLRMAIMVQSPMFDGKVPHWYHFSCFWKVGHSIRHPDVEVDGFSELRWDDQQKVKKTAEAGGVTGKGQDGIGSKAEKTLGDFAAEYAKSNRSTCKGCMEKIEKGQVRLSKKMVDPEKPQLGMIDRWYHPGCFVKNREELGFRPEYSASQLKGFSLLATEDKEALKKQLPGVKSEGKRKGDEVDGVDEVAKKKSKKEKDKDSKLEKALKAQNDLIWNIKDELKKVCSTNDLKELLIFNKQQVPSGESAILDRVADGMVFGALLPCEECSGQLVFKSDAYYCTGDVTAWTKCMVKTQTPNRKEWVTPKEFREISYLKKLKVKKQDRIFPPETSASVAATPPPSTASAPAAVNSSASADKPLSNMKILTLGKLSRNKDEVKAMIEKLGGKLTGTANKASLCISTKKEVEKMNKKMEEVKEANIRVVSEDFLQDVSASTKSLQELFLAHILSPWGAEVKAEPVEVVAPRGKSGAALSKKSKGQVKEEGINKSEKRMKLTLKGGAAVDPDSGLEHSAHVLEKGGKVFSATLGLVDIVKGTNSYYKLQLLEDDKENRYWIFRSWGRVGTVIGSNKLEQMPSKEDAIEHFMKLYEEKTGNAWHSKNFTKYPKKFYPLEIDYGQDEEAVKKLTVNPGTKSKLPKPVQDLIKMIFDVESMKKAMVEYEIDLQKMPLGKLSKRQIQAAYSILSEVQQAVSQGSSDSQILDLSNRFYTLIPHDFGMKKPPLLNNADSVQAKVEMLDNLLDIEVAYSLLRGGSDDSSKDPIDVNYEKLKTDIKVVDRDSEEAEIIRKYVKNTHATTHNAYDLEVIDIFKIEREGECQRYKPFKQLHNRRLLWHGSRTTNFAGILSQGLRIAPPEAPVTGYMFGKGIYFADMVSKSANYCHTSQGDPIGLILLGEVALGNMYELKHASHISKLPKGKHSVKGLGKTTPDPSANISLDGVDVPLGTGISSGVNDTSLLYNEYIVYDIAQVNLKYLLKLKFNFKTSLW
Assay: PARP1 biochemical DELFIA assay (auto-PARylation)
Set-up: recombinant full length human N-terminally FLAG-tagged PARP1
Conditions: binned IC50, PARP1 biochemical DELFIA assay
Listed below: IC50 values for each entry.

// solved cases for IC50 follow
>  <COMPOUND>
CCc1nc(C(=O)NC)ccc1N1CCC(N2CCC(c3ccc(CC)c(=O)[nH]3)C2)CC1 (racemic)

>  <MEASURED_QUANTITY>
IC50

>  <RECORDED_MEASUREMENT>
< 10 nM

$$$$
>  <COMPOUND>
NC(=O)c1ccc(N2CCC(N3CCC(c4nc5ccccc5c(=O)[nH]4)C3)CC2)cn1 (single isomer, unassigned) [Compound 123a]

>  <MEASURED_QUANTITY>
IC50

>  <RECORDED_MEASUREMENT>
10 to 100 nM

$$$$

What value of measured IC50 is listed for CNC(=O)c1ccc(N2CCC(N3CCC(c4cc5ccc(F)cc5c(=O)[nH]4)C3)CC2)nn1 (single isomer, unassigned) [Compound 197a] ?
< 10 nM

###

Molecular target: full length N-terminally FLAG-tagged PARP1 (Homo sapiens, UniProt P09874)
Test: PARP1 probe displacement HTRF assay
Conditions: read-out: PARP1 HTRF; binned Kd, probe displacement HTRF
pKd: −log10 of the molar value.
Listed below: pKd values for each entry.

// solved cases for pKd follow
>  <MOLECULE>
CNC(=O)c1cc(Cl)c(N2CCC(N3CCC(c4cc5cccc(F)c5c(=O)[nH]4)C3)CC2)cn1 (racemic) [Compound 248rac]

>  <RECORDED_MEASUREMENT>
> 8.00

$$$$
>  <MOLECULE>
CNC(=O)c1ccc(N2CCC(N3CCC(c4nc5c(C(F)(F)F)cn(C)c5c(=O)[nH]4)C3)CC2)cn1 (racemic) [Compound 288rac]

>  <RECORDED_MEASUREMENT>
7.00 to 8.00

$$$$
>  <MOLECULE>
CCc1ccc(C2CCN(C3CCN(c4ccc(C#N)cc4Cl)CC3)C2)[nH]c1=O (single isomer, unassigned) [Compound 377a]

>  <RECORDED_MEASUREMENT>
7.00 to 8.00

$$$$
>  <MOLECULE>
CS(=O)(=O)Nc1ccc(N2CCC(N3CCC(c4nc5ccccc5c(=O)[nH]4)C3)CC2)cn1 (single isomer, unassigned) [Compound 291a]

>  <RECORDED_MEASUREMENT>
6.00 to 7.00

$$$$

What value of measured pKd is listed for CNC(=O)c1ccc(N2CCC(N3CCC(c4cc5cccc(F)c5c(=O)[nH]4)C3)CC2)c(F)c1 (single isomer, unassigned) [Compound 371a] ?
> 8.00

What value of measured pKd is listed for CNC(=O)c1ccc(N2CCC(N3CCC(c4cc5cccc(O)c5c(=O)[nH]4)C3)CC2)cn1 (racemic) [Compound 271rac] ?
> 8.00

###

Biological target: N-terminally FLAG-tagged PARP2 (amino acids 1-583) (Homo sapiens, UniProt Q9UGN5)
Construct: N-terminally FLAG-tagged PARP2 (amino acids 1-583)
Sequence (Q9UGN5 whole entry, the tested form may be a part): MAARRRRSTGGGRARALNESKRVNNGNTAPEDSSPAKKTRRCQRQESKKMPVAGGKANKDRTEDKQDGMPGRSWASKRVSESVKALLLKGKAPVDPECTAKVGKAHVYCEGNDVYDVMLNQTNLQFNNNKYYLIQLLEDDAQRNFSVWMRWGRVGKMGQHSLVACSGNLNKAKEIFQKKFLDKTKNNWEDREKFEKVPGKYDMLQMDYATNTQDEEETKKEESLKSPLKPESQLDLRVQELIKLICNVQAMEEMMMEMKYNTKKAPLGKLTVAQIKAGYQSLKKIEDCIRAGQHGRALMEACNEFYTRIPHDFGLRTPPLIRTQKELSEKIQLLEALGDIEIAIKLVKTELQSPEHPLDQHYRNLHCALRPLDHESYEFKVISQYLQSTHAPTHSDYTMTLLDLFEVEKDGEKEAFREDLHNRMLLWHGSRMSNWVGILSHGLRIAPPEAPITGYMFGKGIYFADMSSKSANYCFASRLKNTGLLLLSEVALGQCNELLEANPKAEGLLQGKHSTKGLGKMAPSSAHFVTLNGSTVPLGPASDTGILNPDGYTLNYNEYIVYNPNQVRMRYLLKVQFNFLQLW
Assay: PARP2 probe displacement HTRF assay
Assay type: binding
Conditions: binned Kd, probe displacement HTRF
Listed below: Kd values for each entry.

// solved cases for Kd follow
>  <COMPOUND>
CNC(=O)c1ccc(N2CCC(N3CCC(c4cc5cccc(F)c5c(=O)[nH]4)C3)CC2)c(C#N)c1 (single isomer, unassigned) [Compound 345a]

>  <TARGET_ENTITY>
N-terminally FLAG-tagged PARP2 (amino acids 1-583) (Homo sapiens, UniProt Q9UGN5)

>  <RECORDED_MEASUREMENT>
100 to 1000 nM

$$$$
>  <COMPOUND>
CNC(=O)c1ncc(N2CCC(N3CCC(c4cc5cccc(F)c5c(=O)[nH]4)C3)CC2)c(C(F)(F)F)n1 (single isomer, unassigned) [Compound 277a]

>  <TARGET_ENTITY>
N-terminally FLAG-tagged PARP2 (amino acids 1-583) (Homo sapiens, UniProt Q9UGN5)

>  <RECORDED_MEASUREMENT>
1000 to 10000 nM

$$$$
>  <COMPOUND>
CNC(=O)c1ccc(N2CCC(N3CCC(c4nc5c(c(=O)[nH]4)CN(C)C5)C3)CC2)cn1 (racemic)

>  <TARGET_ENTITY>
N-terminally FLAG-tagged PARP2 (amino acids 1-583) (Homo sapiens, UniProt Q9UGN5)

>  <RECORDED_MEASUREMENT>
> 10000 nM

$$$$
>  <COMPOUND>
CNC(=O)c1ccc(N2CCC(N3CC4(c5nc6ccncc6c(=O)[nH]5)CC3C4)CC2)c(F)n1

>  <TARGET_ENTITY>
N-terminally FLAG-tagged PARP2 (amino acids 1-583) (Homo sapiens, UniProt Q9UGN5)

>  <RECORDED_MEASUREMENT>
> 10000 nM

$$$$
>  <COMPOUND>
CC(=O)NC(=O)c1ccc(N2CCC(N3CCC(c4cc5ccccc5c(=O)[nH]4)C3)CC2)cn1 (single isomer, unassigned) [Compound 333b]

>  <TARGET_ENTITY>
N-terminally FLAG-tagged PARP2 (amino acids 1-583) (Homo sapiens, UniProt Q9UGN5)

>  <RECORDED_MEASUREMENT>
1000 to 10000 nM

$$$$
>  <COMPOUND>
CNC(=O)c1ccc(N2CCC(N3CCC(c4cc5[nH]nc(C(F)(F)F)c5c(=O)[nH]4)C3)CC2)c(F)n1 (single isomer, unassigned) [Compound 280a]

>  <TARGET_ENTITY>
N-terminally FLAG-tagged PARP2 (amino acids 1-583) (Homo sapiens, UniProt Q9UGN5)

>  <RECORDED_MEASUREMENT>
1000 to 10000 nM

$$$$
>  <COMPOUND>
CNC(=O)c1ccc(N2CCC(N3CC4(c5nc6ccccc6c(=O)[nH]5)CC3(CO)C4)CC2)cn1

>  <TARGET_ENTITY>
N-terminally FLAG-tagged PARP2 (amino acids 1-583) (Homo sapiens, UniProt Q9UGN5)

>  <RECORDED_MEASUREMENT>
> 10000 nM

$$$$
>  <COMPOUND>
N#Cc1ccc(N2CCC(N3CCC(c4cc5cccc(F)c5c(=O)[nH]4)C3)CC2)nc1 (single isomer, unassigned) [Compound 340a]

>  <TARGET_ENTITY>
N-terminally FLAG-tagged PARP2 (amino acids 1-583) (Homo sapiens, UniProt Q9UGN5)

>  <RECORDED_MEASUREMENT>
100 to 1000 nM

$$$$
>  <COMPOUND>
CNC(=O)c1ccc(N2CCC(N3CC4(c5nc6c(c(=O)[nH]5)COCC6)CC3C4)CC2)cn1

>  <TARGET_ENTITY>
N-terminally FLAG-tagged PARP2 (amino acids 1-583) (Homo sapiens, UniProt Q9UGN5)

>  <RECORDED_MEASUREMENT>
1000 to 10000 nM

$$$$
>  <COMPOUND>
CNC(=O)c1cc(C)c(N2CCC(N3CCC(c4nc5ccccc5c(=O)[nH]4)C3)CC2)c(C)n1 (single isomer, unassigned) [Compound 224b]

>  <TARGET_ENTITY>
N-terminally FLAG-tagged PARP2 (amino acids 1-583) (Homo sapiens, UniProt Q9UGN5)

>  <RECORDED_MEASUREMENT>
1000 to 10000 nM

$$$$

What value of measured Kd is listed for CC(=O)Nc1ccc(N2CCC(N3CCC(c4nc5ccccc5c(=O)[nH]4)C3)CC2)cn1 (single isomer, unassigned) [Compound 220a] ?
1000 to 10000 nM

What value of measured Kd is listed for CNC(=O)c1ccc(N2CCC(N3CCC(c4cc5c(c(=O)[nH]4)CCCN5)C3)CC2)cn1 (racemic) ?
100 to 1000 nM

What value of measured Kd is listed for CNC(=O)c1ccc(N2CCC(N3CCC(c4cc5c(c(C(F)(F)F)nn5C)c(=O)[nH]4)C3)CC2)cn1 (racemic) ?
< 10 nM
